Molecular target: T1, recombinant BACE1 (BACE1 extracellular domain, R&D Systems Cat#931-AS) (UniProt P56817 22-457)
T1 construct: extracellular domain; also called BACE1 extracellular domain protein
T1 sequence (P56817 22-457): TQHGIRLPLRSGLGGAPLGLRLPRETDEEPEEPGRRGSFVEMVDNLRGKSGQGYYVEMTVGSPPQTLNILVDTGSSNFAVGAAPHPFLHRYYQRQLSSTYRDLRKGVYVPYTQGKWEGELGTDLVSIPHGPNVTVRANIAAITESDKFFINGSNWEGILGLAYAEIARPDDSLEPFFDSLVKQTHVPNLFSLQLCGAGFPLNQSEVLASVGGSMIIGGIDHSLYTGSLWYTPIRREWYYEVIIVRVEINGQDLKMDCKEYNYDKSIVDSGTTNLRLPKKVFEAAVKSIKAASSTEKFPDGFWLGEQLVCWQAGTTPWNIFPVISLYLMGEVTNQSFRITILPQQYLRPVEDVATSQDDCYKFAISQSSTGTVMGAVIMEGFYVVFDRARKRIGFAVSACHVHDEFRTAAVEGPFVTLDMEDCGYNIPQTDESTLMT
Assay: SPR Biacore 8K, antibody captured, BACE1 analyte
Experimental: The binding affinities of the affinity matured humanized 2H8 variants for BACE1 were determined by surface plasmon resonance using a Biacore™ 8K instrument. […] The binding was monitored for 300 seconds and then dissociation was monitored for 600+ seconds in HBS-EP+ running buffer (GE Healthcare Life Sciences, BR100669). Binding response was corrected by subtracting the RU from a blank flow cell. A 1:1 Langmuir model of simultaneous fitting of kₒₙ and koff was used for kinetics analysis.
Metric name: Kd (nM)
Use nM as the unit, but write only the number.

Consider the reported Kd for these binders:
hu2H8v29.8 (antibody, V domains shown, captured via human Fc; also called hu2H8_HC6 + hu2H8_LC5.8) VH: QVQLVQSGAEVKKPGASVKVSCKASGYTFTNFWIHWVRQAPGQGLEWMGMIDPSDSYTKYNQKFKARATLTVDTSTSTVYMELSSLRSEDTAVYYCARSGVAFPYWGQGTLVTVSS VL: DIQMTQSPSSLSASVGDRVTITCKASQDVGRNVAWYQQKPGKSPKSLIYSASHRYSGVPSRFSGSGSGTDFTLTISSLQPEDFATYFCQQYQSYPYTFGQGTKVEIK    8.1
hu2H8v29.3 (antibody, V domains shown, captured via human Fc; also called hu2H8_HC6 + hu2H8_LC5.3) VH: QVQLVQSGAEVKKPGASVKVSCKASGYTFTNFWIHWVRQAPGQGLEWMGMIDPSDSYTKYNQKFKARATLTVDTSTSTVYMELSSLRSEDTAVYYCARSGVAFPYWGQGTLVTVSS VL: DIQMTQSPSSLSASVGDRVTITCKASQDVGRNVAWYQQKPGKSPKSLIYSASHMYSGVPSRFSGSGSGTDFTLTISSLQPEDFATYFCQQYNSYPYTFGQGTKVEIK    6.93
hu2H8v29.10 (antibody, V domains shown, captured via human Fc; also called hu2H8_HC6 + hu2H8_LC5.10) VH: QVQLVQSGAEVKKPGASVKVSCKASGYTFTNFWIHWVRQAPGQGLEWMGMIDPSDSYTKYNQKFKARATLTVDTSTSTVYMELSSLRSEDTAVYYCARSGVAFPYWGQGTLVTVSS VL: DIQMTQSPSSLSASVGDRVTITCKASQDVGRNVAWYQQKPGKSPKSLIYSASHRYSGVPSRFSGSGSGTDFTLTISSLQPEDFATYFCQQYYSYPYTFGQGTKVEIK    4.84

Noted for hu2H8v29.4 (antibody, V domains shown, captured via human Fc; also called hu2H8_HC6 + hu2H8_LC5.4) VH: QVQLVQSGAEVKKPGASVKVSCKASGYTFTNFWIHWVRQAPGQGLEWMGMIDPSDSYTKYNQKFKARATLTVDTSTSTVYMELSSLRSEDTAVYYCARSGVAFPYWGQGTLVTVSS VL: DIQMTQSPSSLSASVGDRVTITCKASQDVGRNVAWYQQKPGKSPKSLIYSASHQYSGVPSRFSGSGSGTDFTLTISSLQPEDFATYFCQQYNSYPYTFGQGTKVEIK : its Kd reads 6.53

Noted for hu2H8v29.9 (antibody, V domains shown, captured via human Fc; also called hu2H8_HC6 + hu2H8_LC5.9) VH: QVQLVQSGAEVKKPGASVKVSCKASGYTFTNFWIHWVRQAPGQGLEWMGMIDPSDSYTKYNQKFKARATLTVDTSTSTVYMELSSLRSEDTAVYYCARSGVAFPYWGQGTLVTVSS VL: DIQMTQSPSSLSASVGDRVTITCKASQDVGRNVAWYQQKPGKSPKSLIYSASHRYSGVPSRFSGSGSGTDFTLTISSLQPEDFATYFCQQYNAYPYTFGQGTKVEIK : its Kd reads 11

Noted for hu2H8v29.7 (antibody, V domains shown, captured via human Fc; also called hu2H8_HC6 + hu2H8_LC5.7) VH: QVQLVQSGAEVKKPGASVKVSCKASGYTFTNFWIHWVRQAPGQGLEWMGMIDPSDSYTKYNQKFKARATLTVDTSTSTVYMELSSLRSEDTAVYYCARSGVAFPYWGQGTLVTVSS VL: DIQMTQSPSSLSASVGDRVTITCKASQDVGRNVAWYQQKPGKSPKSLIYSASHRYSGVPSRFSGSGSGTDFTLTISSLQPEDFATYFCQQYSSYPYTFGQGTKVEIK : its Kd reads 4.99

Noted for hu2H8v29 (antibody, V domains shown, humanized; also called hu2H8_HC6 + hu2H8_LC5) VH: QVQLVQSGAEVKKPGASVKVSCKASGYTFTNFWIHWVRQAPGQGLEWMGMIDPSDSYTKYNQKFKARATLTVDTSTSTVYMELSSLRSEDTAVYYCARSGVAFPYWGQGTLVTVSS VL: DIQMTQSPSSLSASVGDRVTITCKASQDVGRNVAWYQQKPGKSPKSLIYSASHRYSGVPSRFSGSGSGTDFTLTISSLQPEDFATYFCQQYNSYPYTFGQGTKVEIK : its Kd reads 9.21
